Target: Cyclin-Y/Cyclin-dependent kinase 16 (Homo sapiens, UniProt Q00536)
Sequence (Q00536 whole entry): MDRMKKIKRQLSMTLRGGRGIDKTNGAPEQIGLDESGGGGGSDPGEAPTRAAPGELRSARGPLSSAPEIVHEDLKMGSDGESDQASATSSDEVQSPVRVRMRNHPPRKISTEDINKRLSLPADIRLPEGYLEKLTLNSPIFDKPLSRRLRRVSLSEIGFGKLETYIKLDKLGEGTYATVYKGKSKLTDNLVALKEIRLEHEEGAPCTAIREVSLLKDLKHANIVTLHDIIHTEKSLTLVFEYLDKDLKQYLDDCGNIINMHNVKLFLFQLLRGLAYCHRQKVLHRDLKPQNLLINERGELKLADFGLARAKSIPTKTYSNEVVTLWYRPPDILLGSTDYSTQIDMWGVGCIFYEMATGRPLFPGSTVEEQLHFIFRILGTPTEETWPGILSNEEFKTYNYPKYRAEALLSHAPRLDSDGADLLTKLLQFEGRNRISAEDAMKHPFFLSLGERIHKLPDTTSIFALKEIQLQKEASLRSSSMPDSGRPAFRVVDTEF
Sequence (Q8ND76 whole entry, further chain): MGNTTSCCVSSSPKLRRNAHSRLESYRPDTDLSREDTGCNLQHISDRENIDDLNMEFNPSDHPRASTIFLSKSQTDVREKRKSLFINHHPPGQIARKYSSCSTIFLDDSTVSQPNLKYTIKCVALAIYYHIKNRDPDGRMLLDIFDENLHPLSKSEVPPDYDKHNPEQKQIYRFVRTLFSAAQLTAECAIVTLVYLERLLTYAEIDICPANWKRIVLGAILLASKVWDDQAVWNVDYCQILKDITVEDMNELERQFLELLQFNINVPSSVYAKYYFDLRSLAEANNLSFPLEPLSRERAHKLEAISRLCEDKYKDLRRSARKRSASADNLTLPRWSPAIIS
Experiment: Inhibition of PCTAIRE1/cyclinY (unknown origin)
Quantity kind: IC50

[in] Let me know recorded IC50 for "CC(=O)n1nc(C)c(-c2ccc(Cl)c(Cl)c2)c1N" , thanks.
[out] > 100 µM

----------
Test: Kinetic solubility in phosphate buffered saline at pH 7.4 measured after 60 mins
Format: physicochemical
Settings: read-out: Kinetic_solubility
Quantity kind: solubility kinetic at 1 h (µM)
I only need the number, in µM, no unit after it.

[in] Give recorded solubility kinetic at 1 h. "CC(=O)n1nc(C)c(-c2ccc(Cl)c(Cl)c2)c1N"
[out] 12
